# System: U251 CNS
# METHOD NOTES: NCI-60 one-dose screen, 48 h (100 = growth as untreated, 0 = no growth, -100 = all killed)
# CONDITION LABEL: 10 µM unless noted
This is part of a sample that, as a whole, favours compounds with a hit. Of some 83,000 tested, about 20% had one in any assay.
Each item that follows carries a reported growth.
Output spec: scalar in %, unitless text.

// solved cases for growth follow
> print(dat)
                                   molecule  test.system  experimental.endpoint  measured
1  CS(=O)(=O)c1ccc(/C(=N/N=C(N)N)c2ccc(F)cc2)cc1     U251 CNS                 growth      67.2
2  NCCNC(=O)c1cccc(COc2ccccc2NC(=O)c2cc(Br)c(Br)[nH]2)c1     U251 CNS                 growth      77.5
3  COc1ccc(-c2c(C(N)=O)c(N)n(Cc3nc4ccccc4[nH]3)c(=O)c2C#N)c(OC)c1     U251 CNS                 growth      97.2
4  c1ccc(-c2cn3c(-c4c[nH]c5ccccc45)csc3n2)cc1     U251 CNS                 growth        61
5  CC(C)Sc1nc(-c2ccccc2)c(C#N)c(N2CCOCC2)n1     U251 CNS                 growth      44.8
6  O=C(CSc1nnc(-c2ccc(Cl)cc2)n1-c1ccccc1)Nc1cccc(F)c1     U251 CNS                 growth      14.1

Sample COc1ccc(/C=N/N=C(/c2ccccc2)c2ccc3nc(-c4ccc(Cl)cc4)[nH]c3c2)cc1 — what was its growth?
79.4

Then what about the molecule COc1ccc(NC2=C(Br)C(=O)C(C)=C(C)C2=O)cc1OC ?
84
